system: SR leukemia; assay: NCI tumour cell line growth inhibition, 48 h
TGI by entry:

// worked examples, TGI included
molecule=Cc1nnc(Nc2ccccc2)o1 observed_result="> 100 µM"
molecule=COC(=O)C(CCC#N)(CCC#N)C(=O)OC observed_result="> 100 µM"
molecule="Cc1ccc(S(=O)(=O)C(CC(=O)N2CCCC2)C(=O)c2ccccc2)cc1 (stereo unspecified)" observed_result="> 100 µM"
molecule="N#CSCC1CC(O)(c2ccccc2)C(c2ccccc2)C(c2ccc(Cl)cc2)O1 (stereo unspecified)" observed_result="4.95 µM"
molecule=CC1(C)CC(/C=C2/OC(=O)c3ccccc32)=C(C#N)C(=O)O1 observed_result="> 100 µM"

Input: I have this molecule here, Nc1cc(CO)cc(Nc2nc3ccc(Cl)cc3c3[nH]c4ccccc4c23)c1 , and I need its recorded TGI.
Output: 7.33 µM

Input: State the recorded TGI for this entry: Nc1nc2cc3nc(N)c(N)nc3cc2nc1N
Output: > 100 µM

Input: Quick one: TGI for COc1ccc2c(c1)c(-c1nc(-c3cn(C)c4ncccc34)cs1)cn2CCCN1CCCCC1 ?
Output: 3.77 µM

Input: Name the reported TGI value associated with the molecule COc1cc(/C=C/c2cc(/C=C/c3ccc(O)c(OC)c3)n(-c3ccccc3)n2)ccc1O
Output: > 100 µM

Input: Fill in: TGI of CC1OC(O[C@H]2C[C@@H](O)[C@]3(CO)[C@H]4[C@H](O)C[C@]5(C)[C@@H](C6=CC(=O)OC6)CC[C@]5(O)[C@@H]4CC[C@]3(O)C2)C(O)C(O)C1O (stereo partly specified) is ___
Output: 38 µM

Input: Please look up its TGI: O=C(O)Cn1ccc(=O)c2ccc([N+](=O)[O-])cc21
Output: > 100 µM

Every entry's value here was drawn from PubChem BioAssay (NCI).
